# System: 616215-338-R-J1-PDC complex spheroid viability
# experiment.description: Anticancer human tumor 616215-338-R-J1-PDC patient-derived colon adenocarcinoma cell line growth inhibition [POLQ]
# condition.description: second compound 0.316 µM; first compound 3.16 µM; active compounds read low
# Description: Multicellular complex tumor spheroid response to Polymerase (POL) inhibitors (novobiocin, ART-558, RP6685) in combination with a variety of drugs and investigational agents in selected tumor cell lines The POL inhibitors (novobiocin, ART-558, and RP6685) were evaluated both individually and in combination with standard of care and investigational anticancer small molecules within a complex spheroid model of solid tumors. . […]
value.type: viability, T/C (%)

CCc1cc2c(N3CCc4c(cc(Cn5ccnc5)cc4-c4cn(C)nc4C(F)(F)F)C3=O)cc(C)nc2c(OC)n1 + Cc1cccc(N(C)C(=O)C2C(O)CCN2c2nc(C)cc(C(F)(F)F)c2C#N)c1 :: 45.7
CNCc1ccc(-c2[nH]c3cc(F)cc4c3c2CCNC4=O)cc1 + COC1C(OC(N)=O)C(O)C(Oc2ccc3c(O)c(NC(=O)c4ccc(O)c(CC=C(C)C)c4)c(=O)oc3c2C)OC1(C)C :: 105
O=C(Nc1ccc(O)c(NS(=O)(=O)c2ccc(F)cc2)c1)c1ccc(-c2ccccc2)cc1 + Nc1ccc(C#CCN(C(=O)Cc2ncc(C(F)(F)F)cc2C(F)(F)F)c2ccc(F)cc2)nn1 :: 96.6

====

# Test system: 616215-338-R-J1-PDC complex spheroid viability
# experiment.description: Anticancer human tumor 616215-338-R-J1-PDC cell line growth inhibition [POLQ];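 also: spheroids exposed to compounds for one week before readout; percent viability relative to DMSO vehicle wells taken as 100%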
# condition.description: second compound 0.0316 µM; first compound 0.316 µM; active compounds read low
value.type: viability, T/C (%)

COc1cccc2c1C(=O)c1c(O)c3c(c(O)c1C2=O)CC(O)(C(=O)CO)CC3OC1CC(N)C(O)C(C)O1 (stereo not drawn) + Cc1cccc(N(C)C(=O)C2C(O)CCN2c2nc(C)cc(C(F)(F)F)c2C#N)c1 :: 79.8
CC(C)n1c(=O)n(C)c2cnc3cc(F)c(-c4ccc(OCCCN5CCCCC5)nc4)cc3c21 + Nc1ccc(C#CCN(C(=O)Cc2ncc(C(F)(F)F)cc2C(F)(F)F)c2ccc(F)cc2)nn1 :: 103
CNCc1ccc(-c2[nH]c3cc(F)cc4c3c2CCNC4=O)cc1 + COC1C(OC(N)=O)C(O)C(Oc2ccc3c(O)c(NC(=O)c4ccc(O)c(CC=C(C)C)c4)c(=O)oc3c2C)OC1(C)C :: 106

====

# System: 616215-338-R-J1-PDC complex spheroid viability
# experiment.description: Anticancer human tumor 616215-338-R-J1-PDC cell line growth inhibition [POLQ];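 also: spheroids exposed to compounds for one week before readout; percent viability relative to DMSO vehicle wells taken as 100%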
# condition.description: second compound 3.16 µM; first compound 1 µM; active compounds read low
# Description: Multicellular complex tumor spheroid response to Polymerase (POL) inhibitors (novobiocin, ART-558, RP6685) in combination with a variety of drugs and investigational agents in selected tumor cell lines The POL inhibitors (novobiocin, ART-558, and RP6685) were evaluated both individually and in combination with standard of care and investigational anticancer small molecules within a complex spheroid model of solid tumors. . […]
Quick reference: viability, T/C of the listed items.
value.type: viability, T/C (%)

CC1COCCN1c1cc(C2(O)CC3CCC(C2)O3)c2cnn(-c3ccn[nH]3)c2n1 (stereo not given) + Cc1cccc(N(C)C(=O)C2C(O)CCN2c2nc(C)cc(C(F)(F)F)c2C#N)c1 :: 71.8
O=c1[nH]cc(F)c(=O)[nH]1 + COC1C(OC(N)=O)C(O)C(Oc2ccc3c(O)c(NC(=O)c4ccc(O)c(CC=C(C)C)c4)c(=O)oc3c2C)OC1(C)C :: 69.8
Nc1ccn(C2OC(CO)C(O)C2(F)F)c(=O)n1 (stereo not given) + Cc1cccc(N(C)C(=O)C2C(O)CCN2c2nc(C)cc(C(F)(F)F)c2C#N)c1 :: 29.4
CC1COCCN1c1cc(C2(S(C)(=N)=O)CC2)nc(-c2ccnc3[nH]ccc23)n1 (stereo not given) + Nc1ccc(C#CCN(C(=O)Cc2ncc(C(F)(F)F)cc2C(F)(F)F)c2ccc(F)cc2)nn1 :: 83
O=C(Nc1ccc(O)c(NS(=O)(=O)c2ccc(F)cc2)c1)c1ccc(-c2ccccc2)cc1 + Cc1cccc(N(C)C(=O)C2C(O)CCN2c2nc(C)cc(C(F)(F)F)c2C#N)c1 :: 88.1
CC(C)n1c(=O)n(C)c2cnc3cc(F)c(-c4ccc(OCCCN5CCCCC5)nc4)cc3c21 + Cc1cccc(N(C)C(=O)C2C(O)CCN2c2nc(C)cc(C(F)(F)F)c2C#N)c1 :: 114
CNCc1ccc(-c2[nH]c3cc(F)cc4c3c2CCNC4=O)cc1 + Cc1cccc(N(C)C(=O)C2C(O)CCN2c2nc(C)cc(C(F)(F)F)c2C#N)c1 :: 104
CCc1c2c(nc3ccc(O)cc13)-c1cc3c(c(=O)n1C2)COC(=O)[C@]3(O)CC + COC1C(OC(N)=O)C(O)C(Oc2ccc3c(O)c(NC(=O)c4ccc(O)c(CC=C(C)C)c4)c(=O)oc3c2C)OC1(C)C :: 20.6
C=CC(=O)N1CCN(c2nc(=O)n(-c3c(C)ccnc3C(C)C)c3nc(-c4c(O)cccc4F)c(F)cc23)C(C)C1 (stereo not given) + COC1C(OC(N)=O)C(O)C(Oc2ccc3c(O)c(NC(=O)c4ccc(O)c(CC=C(C)C)c4)c(=O)oc3c2C)OC1(C)C :: 95
CC1COCCN1c1cc(C2(O)CC3CCC(C2)O3)c2cnn(-c3ccn[nH]3)c2n1 (stereo not given) + COC1C(OC(N)=O)C(O)C(Oc2ccc3c(O)c(NC(=O)c4ccc(O)c(CC=C(C)C)c4)c(=O)oc3c2C)OC1(C)C :: 50.3
